molecular target: hGLP-1R (Homo sapiens, UniProt P43220); experiment: cell-based or functional assay
Sequence (P43220 24-463): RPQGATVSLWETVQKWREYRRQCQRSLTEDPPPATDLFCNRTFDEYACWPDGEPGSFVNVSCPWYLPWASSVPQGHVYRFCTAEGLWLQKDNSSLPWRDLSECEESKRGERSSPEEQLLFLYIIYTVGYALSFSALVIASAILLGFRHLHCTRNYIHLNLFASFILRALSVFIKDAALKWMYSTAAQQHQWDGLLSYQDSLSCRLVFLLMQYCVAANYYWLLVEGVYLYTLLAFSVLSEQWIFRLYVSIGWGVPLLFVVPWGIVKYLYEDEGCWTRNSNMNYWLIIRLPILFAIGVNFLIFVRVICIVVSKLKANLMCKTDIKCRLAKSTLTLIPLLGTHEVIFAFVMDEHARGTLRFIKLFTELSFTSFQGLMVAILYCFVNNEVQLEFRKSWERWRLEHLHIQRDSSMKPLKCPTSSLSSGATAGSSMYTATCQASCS
# key: entry, value: cAMP Rel EC50 (in the presence of 1% HSA)
Give a bare numeral; the unit nM is implied.

>  <Binder>
YXQGTFTSDXSKXLDKKAQXAFIEYLIEXGESSGAPPPSGS (non-natural residues, acylated Lys, C-terminal amide; synthetic construct; SITE 2: note = 2-Aminoisobutyric Acid; SITE 10: note = 3-(4-Pyridyl)-L-alanine; SITE 13: note = alpha-methyl-leucine; SITE 17: note = Lysine is chemically modified through conjugation of the epsilon-amino group of the Lysine side chain with (2-[2-(2-Amino-ethoxy)-ethoxy]-acetyl)) [Example 280]

>  <Units text>
nM

>  <Reported value>
171

$$$$

Task: // returns reported cAMP Rel EC50 (in the presence of 1% HSA) for input YXQGTXTSDXSILLDKKAQXAFIEYLEEGGPSSGEPPPSGTEE (acylated Lys, C-terminal amide, non-natural residues; synthetic construct; SITE 2: note = 2-Aminoisobutyric Acid; SITE 6: note = alpha-methyl-2-fluoro-L-phenylalanine; SITE 10: note = 3-(4-Pyridyl)-L-alanine; SITE 17: note = Lysine is chemically modified through conjugation of the epsilon-amino group of the Lysine side chain with (gamma-Glu)2-CO-(CH2)1) [Example 608]
Output: 201

Task: And for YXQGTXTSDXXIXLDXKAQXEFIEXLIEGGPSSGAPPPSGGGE (non-natural residues, acylated Lys (AEEA-γGlu-C18 diacid), C-terminal amide; synthetic construct; SITE 2: note = 2-Aminoisobutyric Acid; SITE 6: note = alpha-methyl-L-phenylalanine; SITE 10: note = 3-(4-Pyridyl)-L-alanine; SITE 11: note = alpha-methyl-L-serine; SITE 13: note = alpha-methyl-leucine; SITE 16: note = L-ornithine; SITE 17: note = Lysine is chemically modified th) [Example 1168] ?
Output: 65.4

Provenance of the data: patent US20240270821A1
